- experimental protocol: Toxicity liver stage against HepG2, at 10uM
- Format: cell-based
- Set-up: test concentration 10 uM, cell line HepG2-A16-CD81EGFP
- measurement conditions: human, HepG2-A16-CD81EGFP cells; read-out: INHIBITION
The compounds listed here are annotated with their cytotoxicity at 10 µM.

{"columns": ["compound", "cytotoxicity at 10 µM [%]"],
 "data": [
  ["COCC(=O)NC1CC2(CCN(CC3CC3)CC2)Oc2ccccc21 (stereo unspecified)", -2.6],
  ["CS(=O)(=O)N1C[C@H]2CC[C@@H](C1)N(C(=O)CCc1n[nH]c3c1CCCC3)C2", 11],
  ["CS(=O)(=O)N1CCN(C(=O)c2cncs2)CC(C(N)=O)C1 (stereo unspecified)", 2.9],
  ["O=C(NCCN1CCCCC1)c1nc(-c2cccc3[nH]ccc23)no1", 0.142],
  ["CCOc1ccccc1NC(=O)Nc1cc(N2CCCC2)ncn1", -0.113],
  ["N#Cc1cn[nH]c1NCc1cc(Cl)cc(Cl)c1O", 19.1],
  ["Cn1cc(N2C(=O)CC[C@@H]3[C@H]2CCN3Cc2nccs2)cn1", 8.62],
  ["CCc1ncc(CN2CCc3nc4sc(C)cc4c(=O)n3CC2)cn1", -6.47],
  ["CC(C(=O)NCc1ccc(N2CCCC2)nc1)S(C)(=O)=O (stereo unspecified)", -13.4],
  ["COc1cccc(OC)c1CN1CC(O)CN(S(C)(=O)=O)CC1=O (stereo unspecified)", -82.6],
  ["CC(c1nnc(-c2cccs2)o1)N1CCc2cncnc2C1 (stereo unspecified)", 6.37]
]}
